Exercise: state measured IC50 for each of the molecules provided.
- assayed.system: Epidermal growth factor receptor (Homo sapiens)
- Sequence (P00533 whole entry): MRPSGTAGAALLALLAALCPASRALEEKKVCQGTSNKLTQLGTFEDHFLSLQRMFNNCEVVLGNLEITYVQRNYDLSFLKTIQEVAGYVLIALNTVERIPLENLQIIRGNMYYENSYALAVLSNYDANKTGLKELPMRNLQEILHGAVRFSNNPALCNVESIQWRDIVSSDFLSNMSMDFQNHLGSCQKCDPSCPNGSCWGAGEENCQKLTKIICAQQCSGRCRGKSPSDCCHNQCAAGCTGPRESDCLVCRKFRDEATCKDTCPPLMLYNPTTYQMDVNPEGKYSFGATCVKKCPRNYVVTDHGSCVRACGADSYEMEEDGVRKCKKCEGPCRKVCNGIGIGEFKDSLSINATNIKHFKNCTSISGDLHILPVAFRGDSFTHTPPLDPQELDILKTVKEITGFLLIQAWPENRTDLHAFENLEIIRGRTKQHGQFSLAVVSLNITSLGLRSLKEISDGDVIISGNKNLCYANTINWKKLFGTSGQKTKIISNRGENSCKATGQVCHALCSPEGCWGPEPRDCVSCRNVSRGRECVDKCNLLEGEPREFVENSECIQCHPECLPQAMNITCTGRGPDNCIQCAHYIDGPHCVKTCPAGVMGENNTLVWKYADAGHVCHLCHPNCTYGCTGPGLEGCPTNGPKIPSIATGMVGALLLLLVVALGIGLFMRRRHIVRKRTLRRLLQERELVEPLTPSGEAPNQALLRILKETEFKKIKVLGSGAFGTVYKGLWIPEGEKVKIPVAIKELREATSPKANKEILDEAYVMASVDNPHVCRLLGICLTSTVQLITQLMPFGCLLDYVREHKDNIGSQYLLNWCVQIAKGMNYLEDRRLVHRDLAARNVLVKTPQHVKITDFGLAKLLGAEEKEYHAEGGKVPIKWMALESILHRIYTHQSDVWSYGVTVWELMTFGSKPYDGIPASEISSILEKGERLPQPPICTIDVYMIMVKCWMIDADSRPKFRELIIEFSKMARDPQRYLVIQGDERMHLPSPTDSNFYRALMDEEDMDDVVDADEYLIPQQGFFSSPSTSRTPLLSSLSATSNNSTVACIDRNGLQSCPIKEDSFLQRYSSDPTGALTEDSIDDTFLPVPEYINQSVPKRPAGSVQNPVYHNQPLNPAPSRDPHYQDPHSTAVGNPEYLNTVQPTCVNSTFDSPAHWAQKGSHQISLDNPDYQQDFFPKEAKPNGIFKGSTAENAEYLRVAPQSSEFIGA
- procedure.details: biochemical
- Description: Inhibition of wild type N-terminal GST-tagged human EGFR cytoplasmic domain (669 to 1210 residues) expressed in baculovirus infected Sf21 cells using biotin-labeled TK substrate preincubated for 30 mins followed by substrate and ATP addition at Km concentration and further incubated for 20 mins by HTRF assay
All answers are understood in nM, so give the number only.

Reported IC50 for C=CC(=O)Nc1cc(Nc2cc(-n3c(SC)nnc3-c3ccc(F)cc3)ccn2)ccc1N(C)CCN(C)C was 156

For reference, reported IC50 for C=CC(=O)Nc1cccc(Nc2cc(-n3c(CCCO)nnc3-c3ccc(F)cc3)ccn2)c1 stands at 196

Value of IC50 reported for the molecule C=CC(=O)Nc1cc(Nc2cc(-n3c(SC)nnc3-c3ccc(F)cc3)ccn2)c(OC)cc1N(C)CCN(C)C is 89.3

What the record says about C=CC(=O)Nc1cc(Nc2nccc(-n3cc(CN(C)C)c(-c4ccccc4)n3)n2)c(OC)cc1N1CCOCC1 : IC50 is 34.6

get_value(item= C=CC(=O)Nc1ccc(OC)c(Nc2cc(-n3c(SC)nnc3-c3ccc(F)cc3)ccn2)c1 , readout=IC50) returns 179

Sure, the documented IC50 for C=CC(=O)Nc1cc(Nc2cc(-n3c(SC)nnc3-c3ccc(F)cc3)ccn2)c(OC)cc1N1CCCN(C)CC1 is 333

// data source = ChEMBL document CHEMBL4706488
